tested on: U251 CNS; experiment: NCI-60 one-dose screen, 48 h; conditions: 10 µM unless noted
About 83,000 compounds went through this panel and 20% of them were active in at least one assay; those are over-represented in the sample as a whole. Active and inactive are the calls of the source. How the source made its calls: active means growth percent below 10; inactive means the rest.
Possible outcomes: true (1) = active, false (0) = inactive

{"columns": ["compound", "group"],
 "data": [
  ["CN1CCN(Cc2ccc(NC(=O)c3cncc(C#Cc4cnc5ccc(OCC(C)(C)O)nn45)c3)cc2C(F)(F)F)CC1", "true (1)"],
  ["C=CC(=O)N1CC=C(c2cc3c(N[C@H](C)c4ccccc4)ncnc3[nH]2)CC1", "false (0)"],
  ["c1ccc(C(c2nc3ncncc3[nH]2)N2CSc3nc4ncncc4n3C2)cc1 (centres undefined)", "false (0)"],
  ["C#C[C@]1(O)CC[C@H]2[C@@H]3CC=C4c5sc(-c6ccc(C)cc6)nc5CC[C@]4(C)[C@H]3CC[C@@]21C", "true (1)"],
  ["CCn1c2ccccc2c2cc(-n3nncc3-c3ccccc3)ccc21", "false (0)"],
  ["COc1ccc2c(c1)c(CC(=O)[Se]CCC#N)c(C)n2C(=O)c1ccc(Cl)cc1", "true (1)"],
  ["O=S(=O)(NC1c2ccccc2C[C@H]1O)c1ccc(Cl)cc1Cl (some centres undefined)", "false (0)"],
  ["Cc1cc(C(NC(=O)CCCCCNc2cccc3c2C(=O)N(C2CCC(=O)NC2=O)C3=O)c2ccc3c(c2)OC(F)(F)O3)c(O)c2ncccc12 (centres undefined)", "false (0)"],
  ["COc1ccc2[nH]cc(-c3csc4nc(-c5ccccc5)cn34)c2c1", "false (0)"],
  ["COc1cccc2cc(-c3cc4ccccc4[nH]3)/c(=N\\NC(=O)c3ccc(Cl)cc3)oc12", "false (0)"],
  ["COc1ccc(-c2nn(-c3ccc(S(C)(=O)=O)cc3)cc2/C=N/O)cc1", "false (0)"],
  ["Cc1ccc(CSc2nc(-c3ccc(Cl)cc3)c(C#N)c(N3CCNCC3)n2)cc1", "false (0)"],
  ["Nc1ncc(-c2ccc3ncnc(Nc4cccc(Cl)c4F)c3c2)cn1", "false (0)"],
  ["NC(N)=Nc1ccc(Oc2ccc(Nc3ccc(Cl)c(C(F)(F)F)c3)cc2)cc1", "true (1)"],
  ["CCNC(=O)N1CCc2cc(OC)c(OCCc3ccc(OC)cc3)cc2C1c1ccc(OC)cc1C (centres undefined)", "false (0)"],
  ["N/C(=N\\C(N)=N\\c1nc2ccccc2s1)c1ccc(C(F)(F)F)cc1", "false (0)"],
  ["O=C(CNc1nc(-c2cccc([N+](=O)[O-])c2)cs1)Nc1cccc([N+](=O)[O-])c1", "true (1)"],
  ["C[C@H]1c2[nH]c3ccccc3c2C[C@H]2C(=O)N(CCCCCCC(=O)NO)CC(=O)N21", "false (0)"],
  ["CCNC(=O)Oc1ccc(/C(=C(/C)c2ccccc2)c2ccc(OCCN3CCCCCC3)cc2)cc1", "true (1)"]
]}

###

tested on: SR leukemia; assay: NCI-60 one-dose screen, 48 h (100 = growth as untreated, 0 = no growth, -100 = all killed); settings: 10 µM unless noted
This is part of a sample that, as a whole, favours compounds with a hit. Of some 83,000 tested, about 20% had one in any assay.
Documented growth across a set of compounds
measurement-label: growth (%)

{"columns": ["compound", "unit-tag", "test-result"],
 "data": [
  ["COc1cc(OC)c(S(N)(=O)=O)cc1C(=O)/C=C/c1ccc(Cl)cc1", "%", -19.5],
  ["O=C1[C@H]2Cc3c([nH]c4ccccc34)[C@@H](c3c(Cl)cccc3Cl)N2C(=O)CN1C1CCN(CC2CCCCC2)CC1", "%", -0.0364],
  ["CCc1cccc(NC(=O)CNc2cc(S(=O)(=O)N(C)C)cc(C)c2C)c1", "%", 83.8],
  ["CC(C)(C)n1nnnc1C(Nc1cccc2c1OCO2)c1cc2cccc3ccc4cccc1c4c32 (stereo not given)", "%", 82.3],
  ["Cc1ccc(-c2nnc(SCc3ccc(O)c4ncccc34)o2)cc1", "%", 32.8]
]}
